Test system: crabgrass
Assay: Test B pre/postemergence crabgrass
Type: in vivo, Digitaria sanguinalis
Conditions: Preemergence, Rate 500 g/ha; scale of 0 to 10 where 0 is no effect and 10 is complete control
Criterion: Plant response rating, Crabgrass strictly under 9. Met: label 1. Not met: label 0.

Compound	Discrete Label
CC(C)N(C(=O)n1oc(=O)n(CC(C)[N+](=O)[O-])c1=O)c1ccc(F)cc1F (stereo not drawn) [Compound 603]	label 1
COP(=O)(CCn1c(=O)on(C(=O)N(c2ccc(F)cc2)C(C)C)c1=O)OC [Compound 662]	label 1
Cc1nc(C)c(Cn2c(=O)on(C(=O)N(c3ccc(F)cc3F)C(C)C)c2=O)s1 [Compound 233]	label 0
[2H]C([2H])([2H])n1c(=O)on(C(=O)N(c2ccc(F)cc2)C(C)C)c1=O [Compound 245]	label 0
CC(C)N(C(=O)n1oc(=O)n(Cc2ccccn2)c1=O)c1ccc(F)cc1 [Compound 267]	label 1
CCN(C(=O)n1oc(=O)n(C2CC2)c1=O)C1CCCCC1 [Compound 298]	label 1
CCCCCCCCCCCCCCCCCCCn1c(=O)on(C(=O)N(c2ccc(F)cc2)C(C)C)c1=O [Compound 253]	label 1
